Entry source: patent US9493468B2

Tested on: Sporothrix schenkii
experiment-notes: Antifungal activity in vitro, resazurin growth inhibition: Sporothrix schenkii (B62482)
Format: cell-based
measurement-label: Inf. A: Sporothrix schenkii B62482, pIC50

[
  {
    "molecule": "Cl.Clc1cccc2c1CNC(c1cc3ccccc3s1)c1cccn1-2 (racemic) [Compound 53]",
    "limit-operator": "=",
    "value-observed": 4.92
  },
  {
    "molecule": "Fc1ccc2oc(C3=NCc4c(Cl)cccc4-n4cccc43)cc2c1 [Compound 123]",
    "limit-operator": "=",
    "value-observed": 5.04
  },
  {
    "molecule": "Cc1cccc2oc(C3NCc4c(Cl)cccc4-n4cccc43)cc12.Cl (racemic) [Compound 36]",
    "limit-operator": "<",
    "value-observed": 4.19
  },
  {
    "molecule": "Cc1ncc(C2NCc3c(Cl)cccc3-n3cccc32)cn1.Cl (racemic) [Compound 25]",
    "limit-operator": "<",
    "value-observed": 4.19
  },
  {
    "molecule": "CC(F)(F)c1ccc(C2=NCc3c(Cl)cc(Cl)cc3-n3cccc32)cn1 [Compound 84]",
    "limit-operator": "=",
    "value-observed": 5.65
  },
  {
    "molecule": "Cc1cccc2c1-n1cccc1C(c1cc3ccccc3s1)=NC2 [Compound 164]",
    "limit-operator": "=",
    "value-observed": 5.40
  },
  {
    "molecule": "Fc1cc(F)c2c(c1)-n1cccc1C(c1ccc3scnc3c1)=NC2 [Compound 190]",
    "limit-operator": "<",
    "value-observed": 4.19
  },
  {
    "molecule": "Cc1ccc2cc(C3NCc4c(Cl)cccc4-n4cccc43)oc2c1.Cl (racemic) [Compound 39]",
    "limit-operator": "=",
    "value-observed": 5.52
  },
  {
    "molecule": "CCc1ccc(C2=NCc3c(Cl)cc(Cl)cc3-n3cccc32)cn1 [Compound 76]",
    "limit-operator": "=",
    "value-observed": 4.46
  },
  {
    "molecule": "FC(F)(F)c1ncc(C2=NCc3ccccc3-n3cccc32)cn1 [Compound 101]",
    "limit-operator": "<",
    "value-observed": 4.19
  },
  {
    "molecule": "Clc1cccc2c1CN=C(c1cnc3c(c1)CCC3)c1cccn1-2 [Compound 105]",
    "limit-operator": "=",
    "value-observed": 5.70
  },
  {
    "molecule": "CCn1cc(C2=NCc3cc(Cl)cc(Cl)c3-n3cccc32)cn1 [Compound 62]",
    "limit-operator": "=",
    "value-observed": 4.51
  },
  {
    "molecule": "COc1cccc2cc(C3=NCc4cccc(Cl)c4-n4cccc43)oc12 [Compound 143]",
    "limit-operator": "=",
    "value-observed": 5.49
  },
  {
    "molecule": "Cn1nnc2ccc(C3=NCc4c(Cl)cccc4-n4cccc43)cc21 [Compound 110]",
    "limit-operator": "=",
    "value-observed": 4.44
  },
  {
    "molecule": "Clc1cccc2c1CN=C(c1ccc3snnc3c1)c1cccn1-2 [Compound 195]",
    "limit-operator": "<",
    "value-observed": 4.19
  },
  {
    "molecule": "Cc1cc(C2=NCc3c(C)cccc3-n3cccc32)ccn1 [Compound 97]",
    "limit-operator": "<",
    "value-observed": 4.49
  },
  {
    "molecule": "FC(F)(F)c1ncc(C2=NCc3c(Cl)cccc3-n3cccc32)cn1 [Compound 102]",
    "limit-operator": "=",
    "value-observed": 4.59
  },
  {
    "molecule": "Fc1ccc2oc(C3=NCc4ccc(Cl)cc4-n4cccc43)cc2c1 [Compound 124]",
    "limit-operator": "=",
    "value-observed": 5.10
  },
  {
    "molecule": "Cc1cccc2c1CN=C(c1ccc3ncsc3c1)c1cccn1-2 [Compound 183]",
    "limit-operator": "=",
    "value-observed": 4.77
  }
]
